Record form. Attribute: Kd. Fill in for each entry.
biological target: UniProt O14842; assay: Displacement of [3H]-(S)-2-(6-((2',6'-dimethyl-4'-(3-(methylsulfonyl)propoxy)biphenyl-3-yl)methoxy)-2,3-dihydrobenzofuran-3-yl)acetic acid from human recombinant full-length GPR40 expressed in human HEK293 cell membrane assessed as dissociation constant measured after 2 hrs by radioligand competitive assay
Value expressed in nM; do not type the unit.

Lookup: Quick one: Kd of O=C(O)C[C@@H](c1ccc(OCc2ccc3nc(-c4ccccc4)nn3c2)cc1)c1ccon1 ?
Found: 37

Lookup: Need Kd of CC#C[C@@H](CC(=O)O)c1ccc(OCc2ccc(CN3CCC4(CCc5ccccc54)CC3)s2)cc1 , thanks.
Found: 3.5

Lookup: // Kd lookup, key: CC#C[C@@H](CC(=O)O)c1ccc(OCc2ccc(CN3CCC4(CCc5ccccc54)CC3)cc2)cc1
Found: 2.2

###

Provide the recorded Emax for the entries that follow.
target: Free fatty acid receptor 1 (Homo sapiens); assay: Agonist activity at human recombinant full-length Prolink-tagged GPR40 fused with EA-tagged beta-arrestin expressed in human HEK293 cells assessed as induction of beta-arrestin recruitment measured after 90 mins by beta-galactosidase based PathHunter assay relative to control; type: cell-based; conditions: filed as agonist
Sequence (O14842 whole entry, the tested form may be a part): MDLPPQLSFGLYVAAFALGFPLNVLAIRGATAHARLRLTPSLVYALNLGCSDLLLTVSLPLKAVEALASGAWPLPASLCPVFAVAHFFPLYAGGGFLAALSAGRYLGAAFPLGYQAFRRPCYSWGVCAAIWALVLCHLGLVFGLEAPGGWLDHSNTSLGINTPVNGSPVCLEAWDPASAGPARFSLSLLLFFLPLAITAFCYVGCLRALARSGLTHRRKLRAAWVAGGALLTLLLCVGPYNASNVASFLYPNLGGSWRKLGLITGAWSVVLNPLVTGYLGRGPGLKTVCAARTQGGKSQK
Entry rule: numbers only, all in %.

Lookup: Given CC#C[C@@H](CC(=O)O)c1ccc(OCc2sc(CN3CCC4(C=Cc5ccccc54)CC3)nc2C)cc1 , state its recorded Emax.
Found: 100

Lookup: Fill blank: measured Emax of the molecule CC#C[C@@H](CC(=O)O)c1ccc(OCc2ccc(CN3CCC4(CC3)CN(C)c3ccc(C(F)(F)F)cc34)cc2)cc1 is ____.
Found: 139

Lookup: Give the measured Emax of CC#C[C@@H](CC(=O)O)c1ccc(OCc2nc(C)c(CN3CCC4(C=Cc5ccccc54)CC3)s2)cc1 .
Found: 114

Lookup: Look at this molecule and give its reported Emax. CC#C[C@@H](CC(=O)O)c1ccc(OCc2ccc(CN3CCC4(CC3)CN(C)c3ccc(C)cc34)cc2)cc1
Found: 121

Lookup: Give the measured Emax of CC#C[C@@H](CC(=O)O)c1ccc(OCc2ccc(CN3CCC4(CC3)CN(C)c3c(Cl)cccc34)cc2)cc1 .
Found: 147

Lookup: Which Emax value belongs to CC#C[C@@H](CC(=O)O)c1ccc(OCc2ccc(CN3CCC4(C=Cc5ccccc54)CC3)s2)cc1 ?
Found: 116

Lookup: Which measured Emax value corresponds to CC#C[C@@H](CC(=O)O)c1ccc(OCc2cc(C)c(CN3CCC4(C=Cc5ccccc54)CC3)s2)cc1 ?
Found: 127

Lookup: What measured Emax goes with CC#C[C@H](CC(=O)O)c1ccc(OCc2ccc(CN3CCC4(C=Cc5ccccc54)CC3)cc2)cc1F ?
Found: 102

Lookup: Which measured Emax value corresponds to CC#C[C@@H](CC(=O)O)c1ccc(OCc2ccc(CN3CCC4(CC3)CN(c3ccccc3)c3ccccc34)cc2)cc1 ?
Found: 116

Lookup: Name the reported Emax value associated with the molecule CC#C[C@@H](CC(=O)O)c1ccc(OCc2ccc(CN3CCC4(C=Cc5ccccc54)CC3)c(F)c2)cc1
Found: 135

Lookup: Fill in the blank: the reported Emax of CC#C[C@@H](CC(=O)O)c1ccc(OCc2ccc(CN3CCC4(CCc5ccccc54)CC3)cc2)cc1 is ____.
Found: 137

Lookup: Query (molecule): CC#C[C@@H](CC(=O)O)c1ccc(OCc2ccc(CN3CCC4(CC3)CC(=O)c3ccccc3O4)cc2)cc1 ; field requested: Emax
Found: 147

Lookup: # lookup: Emax of CC#C[C@@H](CC(=O)O)c1ccc(OCc2ccc(CN3CCC4(C=Cc5ccccc54)CC3)c(OC)c2)cc1
Found: 140

Lookup: Emax for O=C(O)C[C@@H](c1ccc(OCc2ccc3nc(-c4ccccc4)nn3c2)cc1)c1ccon1 ?
Found: 141

Lookup: Which measured Emax value corresponds to CC#C[C@@H](CC(=O)O)c1ccc(OCc2ccc(CN3CCC4(CCc5ccccc54)CC3)s2)cc1 ?
Found: 121

Lookup: Report Emax for O=C(O)CCc1ccc(OCc2ccc(CN3CCC4(C=Cc5ccccc54)CC3)cc2)cc1F please.
Found: 144

Lookup: Give the measured Emax of CC#C[C@@H](CC(=O)O)c1ccc(OCc2ccc(CN3CCC4(CC3)CN(C)c3ccc(OC)cc34)cc2)cc1 .
Found: 129

Lookup: # lookup: Emax of CC#C[C@@H](CC(=O)O)c1ccc(OCc2ccc(CN3CCC4(C=Cc5ccccc54)CC3)c(C(F)(F)F)c2)cc1
Found: 132

Lookup: May I ask what Emax has been recorded for CC#C[C@H](CC(=O)O)c1ccc(OCc2ccc(CN3CCC4(C=Cc5ccccc54)CC3)cc2)cc1 ?
Found: 95

Lookup: Need Emax, item CC#C[C@@H](CC(=O)O)c1ccc(OCc2ccc(CN3CCCc4cccc(OC)c43)s2)cc1
Found: 139

Lookup: For the molecule CC#C[C@@H](CC(=O)O)c1ccc(OCc2ccc(CN3CCC4(C=Cc5ccccc54)CC3)c(C)c2)cc1 , what Emax is on record?
Found: 150

Lookup: Which Emax reading was recorded for the molecule CC#C[C@@H](CC(=O)O)c1ccc(OCc2ccc(CN3CCC4(CC3)CN(C(C)C)c3ccccc34)cc2)cc1 ?
Found: 133

Lookup: Endpoint output: Emax of CC#C[C@@H](CC(=O)O)c1ccc(OCc2ccc(CN3CCC4(CC3)CN(C)c3ccccc34)cc2)cc1 . Value?
Found: 134

Lookup: I am curious: what Emax value has been reported for CC#C[C@@H](CC(=O)O)c1ccc(OCc2cnc(CN3CCC4(C=Cc5ccccc54)CC3)s2)cc1 ?
Found: 114
